Each item that follows carries a reported IC50.
# Test system: SK-BR-3 cells
# protocol.notes: Antiproliferation assay (CellTiter-Glo, 72 h), SK-BR-3
# Assay type: cell-based
# condition.label: IC50, median; SK-BR-3, 72 h; read-out: Antiproli SK-BR-3 [M] median
recorded.endpoint: IC50 (M)

INSERT INTO results (molecule, experimental_value) VALUES
  ('CCc1nn(CCN2CCOCC2)c2c1-c1c(Cl)ccc3c(CCCOc4cccc5ccccc45)c(C(=O)O)n(c13)CCCCOC2 (single isomer, unassigned; enantiomer 1) [Example 9]', '1.08e-06'),
  ('Cc1c2c(nn1C)CN(C)CCCCn1c(C(=O)O)c(CCCOc3cccc4ccccc34)c3ccc(Cl)c-2c31 (single isomer, unassigned; enantiomer 1) [Example 12]', '6.67e-07'),
  ('Cc1c2c(nn1C)COCCCCn1c(C(=O)O)c(CCCOc3cccc4ccccc34)c3ccc(Cl)c-2c31 (single isomer, unassigned; enantiomer 1) [Example 26]', '3.3e-06'),
  ('CCc1nn(CCN2CCOCC2)c2c1-c1c(Cl)ccc3c(CCCOc4cccc5ccccc45)c(C(=O)O)n(c13)CCCCOC2 (racemic) [Example 8]', '3e-06');
